The reported numbers originate from ChEMBL document CHEMBL5154812.

# Test system: Serine-protein kinase ATM (Homo sapiens)
# Sequence (Q13315 whole entry): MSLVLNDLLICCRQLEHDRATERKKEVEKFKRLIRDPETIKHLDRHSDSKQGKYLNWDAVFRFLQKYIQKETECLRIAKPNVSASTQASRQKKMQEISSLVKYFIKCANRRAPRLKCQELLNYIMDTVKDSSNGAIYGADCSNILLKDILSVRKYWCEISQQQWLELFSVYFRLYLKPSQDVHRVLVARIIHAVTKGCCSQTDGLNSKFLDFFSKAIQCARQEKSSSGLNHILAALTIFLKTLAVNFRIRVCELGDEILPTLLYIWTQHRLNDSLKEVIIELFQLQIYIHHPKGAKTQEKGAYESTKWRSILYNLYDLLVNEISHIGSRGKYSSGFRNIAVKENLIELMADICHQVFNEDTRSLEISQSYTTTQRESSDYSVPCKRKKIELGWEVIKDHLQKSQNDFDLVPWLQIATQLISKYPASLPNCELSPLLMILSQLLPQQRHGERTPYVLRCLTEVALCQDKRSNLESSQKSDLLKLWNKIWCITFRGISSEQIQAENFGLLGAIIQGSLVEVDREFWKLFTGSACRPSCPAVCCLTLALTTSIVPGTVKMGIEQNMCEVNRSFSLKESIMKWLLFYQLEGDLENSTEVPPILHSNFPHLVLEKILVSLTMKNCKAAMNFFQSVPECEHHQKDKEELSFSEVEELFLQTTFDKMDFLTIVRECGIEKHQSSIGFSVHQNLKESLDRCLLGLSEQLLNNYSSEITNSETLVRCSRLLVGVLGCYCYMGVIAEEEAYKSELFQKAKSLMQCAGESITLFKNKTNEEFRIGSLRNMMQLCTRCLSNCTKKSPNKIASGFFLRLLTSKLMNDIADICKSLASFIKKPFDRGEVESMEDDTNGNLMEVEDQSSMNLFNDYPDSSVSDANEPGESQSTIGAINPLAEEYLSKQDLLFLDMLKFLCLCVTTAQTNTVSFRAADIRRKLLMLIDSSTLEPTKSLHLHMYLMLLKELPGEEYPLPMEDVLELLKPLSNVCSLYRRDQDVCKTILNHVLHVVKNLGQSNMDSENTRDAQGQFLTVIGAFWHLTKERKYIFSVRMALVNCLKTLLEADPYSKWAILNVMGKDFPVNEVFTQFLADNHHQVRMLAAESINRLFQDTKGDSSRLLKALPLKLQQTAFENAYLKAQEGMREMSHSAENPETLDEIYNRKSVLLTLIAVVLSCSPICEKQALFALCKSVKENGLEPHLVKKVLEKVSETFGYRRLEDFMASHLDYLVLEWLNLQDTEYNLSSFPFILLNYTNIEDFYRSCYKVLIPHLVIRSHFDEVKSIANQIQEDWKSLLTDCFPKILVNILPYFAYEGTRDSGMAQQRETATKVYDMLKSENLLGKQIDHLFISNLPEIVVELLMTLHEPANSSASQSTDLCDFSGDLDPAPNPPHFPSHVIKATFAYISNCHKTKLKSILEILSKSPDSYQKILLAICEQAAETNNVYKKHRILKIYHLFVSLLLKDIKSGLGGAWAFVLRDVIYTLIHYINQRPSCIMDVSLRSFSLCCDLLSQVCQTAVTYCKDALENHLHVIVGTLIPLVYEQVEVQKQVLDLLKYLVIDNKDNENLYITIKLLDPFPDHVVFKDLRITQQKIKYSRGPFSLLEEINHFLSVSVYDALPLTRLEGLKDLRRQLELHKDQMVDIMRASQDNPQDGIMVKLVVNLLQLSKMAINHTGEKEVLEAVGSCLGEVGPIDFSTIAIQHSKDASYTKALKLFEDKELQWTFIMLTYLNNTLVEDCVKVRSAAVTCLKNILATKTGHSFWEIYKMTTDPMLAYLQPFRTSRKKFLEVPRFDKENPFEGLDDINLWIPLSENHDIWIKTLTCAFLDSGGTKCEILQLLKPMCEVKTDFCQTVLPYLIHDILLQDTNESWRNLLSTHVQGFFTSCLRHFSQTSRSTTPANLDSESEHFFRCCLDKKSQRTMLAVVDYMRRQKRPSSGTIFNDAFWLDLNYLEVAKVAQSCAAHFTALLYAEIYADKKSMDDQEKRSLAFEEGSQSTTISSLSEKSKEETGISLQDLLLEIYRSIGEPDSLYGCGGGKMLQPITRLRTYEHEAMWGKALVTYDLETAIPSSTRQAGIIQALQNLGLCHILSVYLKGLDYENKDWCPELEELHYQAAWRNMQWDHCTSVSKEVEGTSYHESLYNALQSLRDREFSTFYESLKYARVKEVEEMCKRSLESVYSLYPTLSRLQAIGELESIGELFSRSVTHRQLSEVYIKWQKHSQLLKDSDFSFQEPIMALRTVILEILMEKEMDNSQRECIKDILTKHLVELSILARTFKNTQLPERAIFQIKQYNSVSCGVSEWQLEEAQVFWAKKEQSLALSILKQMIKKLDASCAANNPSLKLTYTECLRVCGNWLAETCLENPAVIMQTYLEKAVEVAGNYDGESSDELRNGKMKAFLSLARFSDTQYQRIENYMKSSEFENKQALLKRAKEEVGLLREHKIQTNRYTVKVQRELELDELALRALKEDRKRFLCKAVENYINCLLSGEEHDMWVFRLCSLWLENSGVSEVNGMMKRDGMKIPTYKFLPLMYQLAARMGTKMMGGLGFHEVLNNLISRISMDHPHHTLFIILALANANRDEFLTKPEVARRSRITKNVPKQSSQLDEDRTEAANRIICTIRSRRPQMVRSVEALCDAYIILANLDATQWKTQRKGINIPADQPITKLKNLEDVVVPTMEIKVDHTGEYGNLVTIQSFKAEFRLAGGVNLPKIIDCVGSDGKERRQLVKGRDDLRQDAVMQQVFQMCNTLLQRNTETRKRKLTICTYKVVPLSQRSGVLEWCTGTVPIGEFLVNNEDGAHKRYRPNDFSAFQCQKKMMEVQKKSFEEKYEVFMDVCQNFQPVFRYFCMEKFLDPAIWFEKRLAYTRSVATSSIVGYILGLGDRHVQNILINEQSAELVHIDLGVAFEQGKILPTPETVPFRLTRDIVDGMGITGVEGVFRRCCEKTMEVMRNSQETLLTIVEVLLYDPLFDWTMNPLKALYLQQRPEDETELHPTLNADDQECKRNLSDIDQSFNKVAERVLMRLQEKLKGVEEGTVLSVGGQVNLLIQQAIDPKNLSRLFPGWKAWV
# Method description: Inhibition of ATM (unknown origin) by FRET assay
Readout type: IC50

Example entries begin here.
COCCn1c(=O)n(C)c2cnc3ccc(-c4ccc(NC(=O)N(C)CCN(C)C)cc4)cc3c21    < 1 nM
CCN1CCN(C(=O)Nc2ccc(-c3ccc4ncc5c(c4c3)n(CCOC)c(=O)n5C)cc2)CC1    159 nM

Query: For Serine-protein kinase ATM (Homo sapiens), provide IC50 of COCCn1c(=O)n(C)c2cnc3ccc(-c4ccc(NC(=O)NC(C)CN(C)C)cc4)cc3c21 (stereo not drawn) please.
Reply: < 1 nM

---

# Method description: Metabolic stability in mouse liver microsomes assessed as parent compound remaining after 120 mins
Property: remaining at 2 h; scope: individual compounds
Report the value in % with no unit label.

Query: Which value of remaining at 2 h has been reported for COCCn1c(=O)n(C)c2cnc3ccc(-c4ccc(NC(=O)NCCN5CC(F)C5)cc4)cc3c21 in the records?
Reply: 50

Query: Which value of remaining at 2 h has been reported for COCCn1c(=O)n(C)c2cnc3ccc(-c4ccc(NC(=O)NCCN(C)C)c(F)c4)cc3c21 in the records?
Reply: 78

---

# Test system: Serine-protein kinase ATM (Homo sapiens)
# Method description: Inhibition of ATM (unknown origin) by FRET assay
Property: pIC50; scope: individual compounds
Quick note: pIC50 values are minus log10 of concentrations in mol/L.

Example entries begin here.
COCCn1c(=O)n(C)c2cnc3ccc(-c4ccc(NC(=O)N5CCN(C)CC5)c(F)c4Cl)cc3c21    6.05
COCCn1c(=O)n(C)c2cnc3ccc(-c4ccc(NC(=O)N5CCC(N)CC5)cc4)cc3c21    7.80
COCCn1c(=O)n(C)c2cnc3ccc(-c4ccc(NC(=O)N5CCC(NC(=O)OC(C)(C)C)CC5)cc4)cc3c21    8.70
COCCn1c(=O)n(C)c2cnc3ccc(-c4ccc(NC(=O)N5CCN(C(C)C)CC5)cc4)cc3c21    6.80
COCCn1c(=O)n(C)c2cnc3ccc(-c4ccc(NC(=O)N5CCN(C)CC5)c(F)c4F)cc3c21    6.67

Now for the compound whose pIC50 we want.
Query: Which value of pIC50 has been reported for COCCn1c(=O)n(C)c2cnc3ccc(-c4ccc(NC(=O)N5CCN(C)CC5)cc4)cc3c21 in the records?
Reply: 7.11

---

# Test system: Serine-protein kinase ATM (Homo sapiens)
# Method description: Inhibition of ATM in human A549 cells assessed as reduction in etoposide-stimulated KAP1 phosphorylation by In-Cell-Western assay
# Assay type: cell-based
IC50 strictly under 0.7 nM means 1 (yes); at 0.7 nM or over means 0 (no).

Record excerpt, results attached:
COCCn1c(=O)n(C)c2cnc3ccc(-c4ccc(NC(=O)N(C)CCN(C)C)cc4)cc3c21    0 (no)
COCCn1c(=O)n(C)c2cnc3ccc(-c4ccc(NC(=O)NCCN5CCC5)cc4)cc3c21    0 (no)
COCCn1c(=O)n(C)c2cnc3ccc(-c4ccc(NC(=O)NCCN(C)C)cc4)cc3c21    0 (no)
COCCn1c(=O)n(C)c2cnc3ccc(-c4ccc(NC(=O)NCCN5CC(F)C5)cc4)cc3c21    1 (yes)
COCCn1c(=O)n(C)c2cnc3ccc(-c4ccc(NC(=O)NCCN(C)C)cc4F)cc3c21    1 (yes)

Query: Please check: IC50 for COCCn1c(=O)n(C)c2cnc3ccc(-c4ccc(NC(=O)NCCN5CC(F)(F)C5)cc4)cc3c21 , strictly under 0.7 nM or not?
Reply: 0 (no)

---

# Test system: Serine-protein kinase ATM (Homo sapiens)
# Method description: Inhibition of ATM (unknown origin) by FRET assay
Property: IC50; scope: individual compounds

Query: Which value of IC50 has been reported for COCCn1c(=O)n(C)c2cnc3ccc(-c4ccc(NC(=O)NCCN(C)C)cc4)cc3c21 in the records?
Reply: < 1 nM

Query: Which value of IC50 has been reported for CN(C)CCNC(=O)Nc1ccc(-c2ccc3ncc4c(c3c2)n(C2CCOCC2)c(=O)n4C)cn1 in the records?
Reply: < 1 nM

Query: Which value of IC50 has been reported for COCCn1c(=O)n(C)c2cnc3ccc(-c4ccc(NC(=O)N5C[C@@H]6C[C@H]5CN6C)cc4)cc3c21 in the records?
Reply: 25 nM

Query: Which value of IC50 has been reported for COCCn1c(=O)n(C)c2cnc3ccc(-c4ccc(NC(=O)N5CCC(N(C)C)CC5)cc4)cc3c21 in the records?
Reply: 945 nM

Query: Which value of IC50 has been reported for COCCn1c(=O)n(C)c2cnc3ccc(-c4ccc(NC(=O)N5CCN(C)CC5)c(C)c4F)cc3c21 in the records?
Reply: 1580 nM

Query: Which value of IC50 has been reported for COCCn1c(=O)n(C)c2cnc3ccc(-c4ccc(NC(=O)NC5CCCN(C)C5)cc4)cc3c21 (centres undefined) in the records?
Reply: < 1 nM

Query: Which value of IC50 has been reported for COCCn1c(=O)n(C)c2cnc3ccc(-c4ccc(NC(=O)NC5CCNCC5)cc4)cc3c21 in the records?
Reply: < 1 nM

Query: Which value of IC50 has been reported for COCCn1c(=O)n(C)c2cnc3ccc(-c4ccc(NC(=O)NCCN5CC(F)(F)C5)cc4)cc3c21 in the records?
Reply: < 1 nM

Query: Which value of IC50 has been reported for COCCn1c(=O)n(C)c2cnc3ccc(-c4ccc(NC(=O)NC5CCN(C)C5)cc4)cc3c21 (centres undefined) in the records?
Reply: < 1 nM
